- test-system: S. pyogenes SKKanGAS, kanamycin survival, BacTiterGlo, 6 h
- method-notes: S. pyogenes SKKanGAS kanamycin growth inhibitors – SKKanGAS strain, luminescence, dose confirmation, streptokinase promoter inhibitor project, dose response (AID 1902);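 further: lower survival reflects blocked streptokinase promoter driving kanamycin resistance gene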
Active and inactive are the calls of the source.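 How the source made its calls: active means EC50 no more than a set limit of log units above the highest dose; inactive means the rest.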
Select the correct class. Options are active, inactive and nothing else.

Past entries and their recorded results:
>  <molecule>
Cc1cc(C)cc(C(=O)Nc2nc3ccccc3[nH]2)c1

>  <class-assignment>
active

$$$$
>  <molecule>
CC(=O)N1c2ccc(S(=O)(=O)N3CCC(C(=O)Nc4cc(C)ccn4)CC3)cc2CC1C (configuration not stated)

>  <class-assignment>
inactive

$$$$
>  <molecule>
Cc1ccc(Cl)cc1N1CCN(C(=O)c2cccc3c(=O)c(C)c(-c4ccccc4)oc23)CC1

>  <class-assignment>
active

$$$$
>  <molecule>
Cc1ccc(OCCn2c(NC(=O)c3ccco3)nc3ccccc32)cc1

>  <class-assignment>
active

$$$$
>  <molecule>
Cc1cccc2[nH]c3c(N4CC=C(c5ccc(F)cc5)CC4)ncnc3c12

>  <class-assignment>
active

$$$$
>  <molecule>
Cc1cccc(OCC(=O)NCC(=O)N/N=C/c2cc(Br)cc(Br)c2O)c1

>  <class-assignment>
active

$$$$
>  <molecule>
CC(=O)C(=Nc1ccc(Cl)cc1Cl)NNc1cccc(Cl)c1

>  <class-assignment>
active

$$$$
>  <molecule>
Cc1ccc(/C=C/C2=NN(Cc3ccc(Cl)c(Cl)c3)C(=O)CC2)cc1

>  <class-assignment>
active

$$$$
>  <molecule>
CCCOc1cccc(-c2cc(C(=O)N/N=C/c3ccccn3)c3ccccc3n2)c1

>  <class-assignment>
active

$$$$
>  <molecule>
CCNc1nc(Oc2c(Cl)cccc2Cl)cc(C(F)(F)F)n1

>  <class-assignment>
active

$$$$

Problem: Each molecule tested received a call. Report the one for CCCCN(CCCC)C(=S)N/N=C/c1c(C)[nH]n(-c2ccccc2)c1=O .
Result: active

Problem: Each molecule tested received a call. Report the one for COC(=O)CSc1nnc(-c2cnccn2)n1C .
Result: inactive

Problem: Each molecule tested received a call. Report the one for Cc1cc(S(=O)(=O)NCCC2=CCCCC2)ccc1Br .
Result: active

Problem: Each molecule tested received a call. Report the one for CC(C)/C(=N/Nc1ccccc1[N+](=O)[O-])c1ccccc1 .
Result: active
